Cited source: PubChem BioAssay (NCATS)

Recorded Potency, one value per entry.
# experimental-protocol: qHTS of pediatric cancer cell lines to identify multiple opportunities for drug repurposing: Primary screen for SK-N-MC cells (AID 1347093); further: potency means the concentration at half of the fitted maximal effect
# study-conditions: SK-N-MC viability, CellTiter-Glo luminescence, 48 h; series mostly up to 46 µM
Inconclusive results are not listed. Active and inactive are the calls of the source. The call rests on the fitted dose curve; in most records, active means well fitted cell-killing curve with a large enough effect; inconclusive means small, poorly fitted or top-dose-only effect; inactive means no such curve, though single readings can be large or run the other way.

{"columns": ["molecule", "Potency"],
 "data": [
  ["COc1cc(=C2C=c3ccccc3=N2)[nH]c1=Cc1[nH]c(C)cc1C", "3720 nM (active)"],
  ["CC1(C)CC(=O)c2c(C(F)(F)F)nn(-c3ccc(C(N)=O)c(NC4CCC(OC(=O)CN)CC4)c3)c2C1 (configuration not stated)", "166 nM (active)"],
  ["COc1cc(-c2nn(C3CCC(N4CCN(C(C)=O)CC4)CC3)c3ncnc(N)c23)ccc1NC(=O)c1cc2ccccc2n1C (configuration not stated)", "743 nM (active)"],
  ["Cn1cc(-c2[nH]c3cc(NC(=O)[C@H](N)C4CCCCC4)cc4c3c2C=NNC4=O)cn1", "296 nM (active)"],
  ["CC(C)[C@H](C(=O)Nc1ccc(C(=O)NO)cc1)c1ccccc1", "469 nM (active)"],
  ["CN1CCC(CNc2ccc3ncc(-c4cccc(OC(F)(F)F)c4)n3n2)CC1", "4180 nM (active)"],
  ["NC(=O)c1c(OCc2c(F)cc(Br)cc2F)nsc1NC(=O)NCCCCN1CCCC1", "16600 nM (active)"]
]}

----------
# experimental-protocol: Quantitative High-Throughput drug screen in 47 multiple myeloma cell lines against the NCATS MIPE library collection: KMS11_JCRBsus cell viability assay (AID 1919873); further: nearly all actives have a fitted effect of over 50% in size
# study-conditions: KMS11 myeloma viability, CellTiter-Glo ATP luminescence, 48 h; series mostly up to 45.8 µM
Records with an inconclusive call do not appear. The source made the active and inactive calls. Calls follow the shape of the dose curve; as a rule, active = well fitted cell-killing curve with a large enough effect; inconclusive = small, poorly fitted or top-dose-only effect, or effect the other way; inactive = no such curve, though single readings can be large or run the other way.
Outcome codes: YES = active, NO = inactive

{"columns": ["structure-smiles", "classification"],
 "data": [
  ["CN1CCN(c2ccc3nc(-c4c(N)c5c(F)cccc5[nH]c4=O)[nH]c3c2)CC1", "YES"],
  ["CC(C)c1ccccc1Cc1cc(C(=O)Nc2ccc(S(=O)(=O)c3ccccc3C(C)(C)C)cc2)c(O)c(O)c1O", "YES"],
  ["COc1cccc(Nc2c(C(N)=O)cnc3c(C)cc(S(=O)(=O)c4cccc(C(=O)N(C)C)c4)cc23)c1", "NO"],
  ["O=C(Cc1ccc(-c2ccc(OCCN3CCOCC3)cc2)cn1)NCc1ccccc1", "YES"],
  ["CN[C@H]1CCc2cc(OC)c(OC)c(OC)c2-c2ccc(OC)c(=O)cc21", "YES"],
  ["Cc1c(C)n(Cc2ccc(-c3ccccc3C(=O)O)cc2)c2ccc(C(=O)N[C@@H](C)c3ccc([N+](=O)[O-])cc3)cc12", "YES"],
  ["COC(=O)[C@]12CCC(C)(C)C[C@@H]1[C@@H]1C(=O)C=C3[C@@]4(C)C=C(C#N)C(=O)C(C)(C)[C@@H]4CC[C@@]3(C)[C@]1(C)CC2", "YES"],
  ["Cc1cc(CN2CCN(c3c(Br)cnc4nc(-c5ccc(N6CCN(C)CC6)cc5)[nH]c34)CC2)no1", "YES"]
]}

----------
# experimental-protocol: Quantitative High-Throughput drug screen in 47 multiple myeloma cell lines against the NCATS MIPE library collection: KMM1_JCRB cell viability assay (AID 1918960); further: potency means the concentration at half of the fitted maximal effect; nearly all actives have a fitted effect of over 30% in size
# study-conditions: KMM1 myeloma viability, CellTiter-Glo ATP luminescence, 48 h; series mostly up to 45.8 µM
Inconclusive results are not listed. The source made the active and inactive calls. The call rests on the fitted dose curve; in most records, active means well fitted cell-killing curve with a large enough effect; inconclusive means small, poorly fitted or top-dose-only effect, or effect the other way; inactive means no such curve, though single readings can be large or run the other way.
Potency overview

{"columns": ["structure-smiles", "Potency"],
 "data": [
  ["Cc1ccc(C(N)=O)cc1Nc1nccc(-c2cn(C(C)C)c3cnccc23)n1", "4.18 µM (active)"],
  ["CC(C)c1ccc(Cn2ccc3c4c(N)nc(NC5CC5)nc4ccc32)cc1", "2.35 µM (active)"],
  ["NCC(=O)Nc1ccc(-n2nc(C(F)(F)F)cc2-c2ccc3c(ccc4ccccc43)c2)cc1", "5.26 µM (active)"],
  ["COc1cc2c(Nc3ccc(NC(=O)c4ccccc4)cc3)ncnc2cc1OCCCN1CCOCC1", "6.62 µM (active)"],
  ["CNC(=O)c1cc(Oc2ccc(NC(=O)Nc3cc(C(C)(C)C)nn3-c3ccc4ncccc4c3)c(F)c2)ccn1", "16.6 µM (active)"]
]}

----------
Property: Potency; scope: individual compounds
# experimental-protocol: qHTS Screen of the MIPE 4.0 Collection Against Ewings Sarcoma (TC32) (AID 1259256); further: potency means the concentration at half of the fitted maximal effect; nearly all actives have a fitted effect of over 45% in size
# study-conditions: TC32 Ewing sarcoma viability, CellTiter-Glo, 48 h; series mostly up to 45.8 µM
Inconclusive results are not listed. Activity calls are given as the source filed them. Calls come from the whole dose curve; as a rule, active = well fitted inhibition curve with a large enough effect; inconclusive = small, poorly fitted or top-dose-only effect; inactive = no such curve, though single readings can be large or run the other way.

{"columns": ["structure-smiles", "Potency"],
 "data": [
  ["Cn1c2ccccc2c2c3c(c4c5ccccc5n(CCC#N)c4c21)CNC3=O", "4.69 µM (active)"],
  ["CNC(=O)c1c(F)cccc1Nc1nc(Nc2cc3c(cc2OC)CCN3C(=O)CN(C)C)nc2[nH]ccc12", "1.32 µM (active)"],
  ["Cc1cnc(Nc2ccc(F)cc2Cl)nc1-c1c[nH]c(C(=O)N[C@H](CO)c2cccc(Cl)c2)c1", "23.5 µM (active)"],
  ["CN1CCC(CNc2ccc3ncc(-c4cccc(OC(F)(F)F)c4)n3n2)CC1", "13.2 µM (active)"],
  ["NC(=O)c1cccc2cn(-c3ccc([C@@H]4CCCNC4)cc3)nc12", "2.35 µM (active)"]
]}

----------
# experimental-protocol: qHTS of pediatric cancer cell lines to identify multiple opportunities for drug repurposing: Primary screen for SJ-GBM2 cells (AID 1347091)
# study-conditions: SJ-GBM2 viability, CellTiter-Glo luminescence, 48 h; series mostly up to 46 µM
Inconclusive results are not listed. Active and inactive are the calls of the source. Calls follow the shape of the dose curve; as a rule, active = well fitted cell-killing curve with a large enough effect; inconclusive = small, poorly fitted or top-dose-only effect; inactive = no such curve, though single readings can be large or run the other way.
Labels: active, inactive

{"columns": ["compound", "classification"],
 "data": [
  ["O=C(Nc1nc2cccc(-c3ccc(CN4CCS(=O)(=O)CC4)cc3)n2n1)C1CC1", "active"],
  ["COc1cc(C)c(Sc2cnc(NC(=O)c3ccc(CNC(C)C(C)C)cc3)s2)cc1C(=O)N1CCN(C(C)=O)CC1 (centres undefined)", "active"],
  ["COC(=O)c1ccc2c(C(=Nc3ccc(N(C)C(=O)CN4CCN(C)CC4)cc3)c3ccccc3)c(O)[nH]c2c1", "active"],
  ["COCCn1c2c([n+](Cc3cnccn3)c1C)C(=O)c1ccccc1C2=O", "active"],
  ["Cc1[nH]nc2ccc(-c3cncc(OC[C@@H](N)Cc4ccccc4)c3)cc12", "active"],
  ["COc1cc(C(C)C)c2c(c1)S(=O)(=O)N(COc1cc(=O)n3cccc(OCCN4CCCCC4)c3n1)C2=O", "active"],
  ["COc1cc(C(=O)N2CCC(N3CCN(C)CC3)CC2)ccc1Nc1ncc2c(n1)N(C)c1ccccc1C(=O)N2C", "active"],
  ["O=c1[nH]nc(Sc2ncc([N+](=O)[O-])s2)n1-c1ccc2c(c1)OCCO2", "active"],
  ["Cn1c2cc(S(C)=O)sc2c2cnn(Cc3cccc(N)c3)c(=O)c21 (centres undefined)", "inactive"],
  ["O=C(Nc1ncc(-c2cc(C(F)F)nn2-c2c(Cl)cccc2Cl)s1)C1CC1", "active"],
  ["COc1cc2c(cc1-c1c(C)noc1C)ncc1[nH]c(=O)n([C@H](C)c3ccccn3)c12", "active"],
  ["c1ccc2c(CCNc3ccc(Nc4ccncc4)cc3)c[nH]c2c1", "active"],
  ["Cc1cc(C(=O)N2CCN(c3cccc(Cl)c3)CC2)n(-c2ccccc2)n1", "active"],
  ["Cc1nc(Nc2n[nH]c3c2CN(C(=O)N[C@H](CN(C)C)c2ccccc2)C3(C)C)c2sccc2n1", "active"],
  ["COc1ccc(CC2SC(=O)NC2=O)cc1C(=O)NCc1ccc(C(F)(F)F)cc1 (centres undefined)", "inactive"],
  ["CN[C@H]1CCc2cc(OC)c(OC)c(OC)c2-c2ccc(OC)c(=O)cc21", "active"],
  ["C=CC(=O)Nc1cc2c(Nc3ccc(F)c(Cl)c3)ncnc2cc1C#CC(C)(C)N1CCN(C)CC1", "active"],
  ["Cc1cnc(Nc2ccc(F)cc2Cl)nc1-c1c[nH]c(C(=O)N[C@H](CO)c2cccc(Cl)c2)c1", "active"],
  ["CC[C@H](CO)Nc1nc(NCc2ccccc2)c2ncn(C(C)C)c2n1", "active"]
]}

----------
# experimental-protocol: Identifying Small Molecule Inhibitors of Pancreatic Cancer Stem Cells (SN12C, Adherent) (AID 1259358);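 further: cell survival measured after 48 h of compound exposure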; further: potency means the concentration at half of the fitted maximal effect
# study-conditions: viability/growth inhibition; series mostly up to 46.1 µM
Inconclusive results are not listed. Activity calls are given as the source filed them. Calls come from the whole dose curve; as a rule, active = well fitted cell-killing curve with a large enough effect; inconclusive = small, poorly fitted or top-dose-only effect; inactive = flat fitted curve, though single readings scatter.

{"columns": ["compound", "Potency"],
 "data": [
  ["CC(C)c1ccccc1Cc1cc(C(=O)Nc2ccc(S(=O)(=O)c3ccccc3C(C)(C)C)cc2)c(O)c(O)c1O", "inactive"],
  ["CC(C)C[C@H](NC(=O)CNC(=O)c1cc(Cl)ccc1Cl)B(O)O", "0.132 µM (active)"],
  ["Cc1cn2c(-c3cn[nH]c3)cnc2c(Nc2ccc(C(=O)N3CCNCC3)cc2F)n1", "20.9 µM (active)"],
  ["CC(C)(C)c1cc(NC(=O)Nc2ccc(-c3cn4c(n3)sc3cc(OCCN5CCOCC5)ccc34)cc2)no1", "inactive"],
  ["CCCCN1CCC(CNC(=O)c2c3n(c4ccccc24)CCCO3)CC1", "inactive"],
  ["O=C(O)c1ccc2cc(-c3ccc(O)c(C45CC6CC(CC(C6)C4)C5)c3)ccc2c1", "2.64 µM (active)"],
  ["COc1ccc2c(c1)CC[C@@H](CN(C)CC(=O)O)[C@H]2c1ccccc1", "inactive"],
  ["O=C(O)[C@H](Cc1c[nH]c2ccccc12)N1C(=O)c2ccccc2C1=O", "inactive"],
  ["Nc1ccc(C(=O)c2cc3c(ccc4ccccc43)[nH]2)cc1", "inactive"],
  ["Cn1cc(-c2[nH]c3cc(NC(=O)[C@H](N)C4CCCCC4)cc4c3c2C=NNC4=O)cn1", "14.8 µM (active)"],
  ["C[C@]1(CO)CN(c2cc(C(=O)Nc3ccc4c(c3)-c3c(c(C(N)=O)nn3-c3ccc(F)cc3)CC4)c(Cl)cn2)C[C@@]1(C)CO", "16.6 µM (active)"],
  ["CCN(CC)CCCCNc1ncc2cc(-c3cc(OC)cc(OC)c3)c(NC(=O)NC(C)(C)C)nc2n1", "14.8 µM (active)"],
  ["C=CC(=O)Nc1cccc(Oc2nc(Nc3ccc(N4CCN(C)CC4)cc3OC)ncc2Cl)c1", "23.5 µM (active)"],
  ["C#Cc1cccc(Nc2ncnc3cc(OC)c(OCCCCCCC(=O)NO)cc23)c1", "14.8 µM (active)"],
  ["CC=C1NC(=O)[C@H]2CSSCCC=C[C@H](CC(=O)N[C@H](C(C)C)C(=O)N2)OC(=O)[C@H](C(C)C)NC1=O", "0.0053 µM (active)"],
  ["COc1cc2c(Oc3ccc(-c4cnc(Nc5ccc(F)cc5)n(C)c4=O)cc3F)ccnc2cc1OCCCN1CCOCC1", "5.9 µM (active)"],
  ["CC(=O)Nc1sc2c(c1-c1nc3ccccc3s1)CNC2", "inactive"],
  ["CC[C@@H]1C(=O)N(C)c2cnc(Nc3ccc(C(=O)NC4CCC(N5CCN(CC6CC6)CC5)CC4)cc3OC)nc2N1C(C)C (some centres not stated)", "1.32 µM (active)"],
  ["O=C(C=Cc1c(C(=O)O)[nH]c2cc(Cl)cc(Cl)c12)Nc1ccccc1", "inactive"],
  ["Cc1cc(Nc2cc(N3CCN(C)CC3)nc(Sc3ccc(NC(=O)C4CC4)cc3)n2)n[nH]1", "20.9 µM (active)"],
  ["CC(=O)OCC(=O)[C@@]1(O)[C@H](C)C[C@H]2[C@@H]3C=C(C)C4=Cc5c(cnn5-c5ccccc5)C[C@]4(C)[C@@H]3[C@@H](O)C[C@@]21C", "inactive"],
  ["C[C@@H]1CN(CC(=O)Nc2ccc3c(c2)Cc2cccc(-c4cc(=O)cc(N5CCOCC5)o4)c2S3)C[C@H](C)O1", "inactive"],
  ["COc1ccc(OC)c(-c2nnc3ccc(-c4ccc(OC)c(O[C@@H]5CCOC5)c4)nn23)c1", "20.9 µM (active)"],
  ["C1=CCOCc2cc(ccc2OCCN2CCCC2)Nc2nccc(n2)-c2cccc(c2)OCC1", "5.26 µM (active)"],
  ["N#Cc1c(O)c2c(-c3ccc(-c4ccccc4O)cc3)csc2[nH]c1=O", "inactive"],
  ["Cc1ccc(S(=O)(=O)Nc2cc(Cl)ccc2C(=O)Nc2nc(-c3ccccc3)cs2)cc1", "2.64 µM (active)"],
  ["C=CC(=O)Nc1cc2c(Nc3ccc(F)c(Cl)c3)ncnc2cc1C#CC(C)(C)N1CCN(C)CC1", "13.2 µM (active)"],
  ["Cc1[nH]nc2ccc(-c3cncc(OC[C@@H](N)Cc4ccccc4)c3)cc12", "7.43 µM (active)"],
  ["CC(NCc1ccc2c(c1)nc(NC(=O)c1ccc(-c3cn[nH]c3)s1)n2CC(C)(C)O)C(C)(C)C (configuration not stated)", "0.296 µM (active)"],
  ["CC1(C)OC2=C(C(=O)c3ccccc3C2=O)[C@H](NCc2ccccc2)[C@H]1O", "26.4 µM (active)"],
  ["COCCn1c2c([n+](Cc3cnccn3)c1C)C(=O)c1ccccc1C2=O", "0.0264 µM (active)"],
  ["CCN1CCN(Cc2ccc(-c3cc4c(N[C@H](C)c5ccccc5)ncnc4[nH]3)cc2)CC1", "23.5 µM (active)"],
  ["NC(=O)Nc1cc(-c2cccc(F)c2)sc1C(=O)N[C@H]1CCCNC1", "8.33 µM (active)"],
  ["C[C@@H](Oc1cc(-c2cnn(C3CCNCC3)c2)cnc1N)c1c(Cl)ccc(F)c1Cl", "18.7 µM (active)"],
  ["Nc1nc(-c2nn(Cc3ccccc3F)c3ncccc23)nc(N)c1N1CCOCC1", "inactive"],
  ["Cc1nc2cnc3ccc(C#Cc4cccnc4)cc3c2n1-c1ccc(C(C)(C)C#N)cc1", "1.18 µM (active)"],
  ["CC(C)(C)OC(=O)Nc1ccc(-c2cc(C(=O)NCCCCCCC(=O)NO)no2)cc1", "26.4 µM (active)"]
]}
